# Test system: HCC70 cells
# assayText: HCC70 cell proliferation assay (CyQUANT Direct, 72 hours)
# Type: cell-based
# assayConditions: Homo sapiens, inhibition of proliferation
# Method: The HCC70 cell line was derived from human TNBC, and we tested representative compounds of the invention, at different concentrations (from 4 μM to 126.4 pM; 0.5 log serial dilutions), for their ability to inhibit the proliferation of those cells. […]
outcomeMeasure: EC50

Inquiry: I'd like to know its EC50. The molecule in question is CC1(C)CC[C@H](Nc2ncc(C(F)(F)F)c(-c3c[nH]c4c(P(C)(C)=O)c(C#N)ccc34)n2)CN1 [Compound 101]
Reply text: 5.6 nM

Inquiry: I'd like to know its EC50. The molecule in question is CC1(C)CNC[C@@H](Nc2ncc(C(F)(F)F)c(-c3c[nH]c4c(P(C)(C)=O)c(C#N)ccc34)n2)C1 [Compound 102]
Reply text: 2.1 nM

Inquiry: I'd like to know its EC50. The molecule in question is C[C@H]1CC[C@H](Nc2ncc(C(F)(F)F)c(-c3c[nH]c4c(P(C)(C)=O)c(C#N)ccc34)n2)CN1 [Compound 100]
Reply text: 0.98 nM

---

# assayText: in vivo
# assayConditions: NOD/SCID, mouse, oral
outcomeMeasure: MTD at 21 days

Inquiry: I'd like to know its MTD at 21 days. The compound in question is `CC1(C)CC[C@H](Nc2ncc(C(F)(F)F)c(-c3c[nH]c4c(P(C)(C)=O)c(C#N)ccc34)n2)CN1`
Reply text: > 10 mg/kg
